# Test system: HDM-specific T cells expanded from PBMCs of HDM-allergic individuals
# Test details: T cell reactivity of peptides: IFN/IL-5 ELISPOT on in vitro expanded HDM-specific T cells
# Type: cell-based, human
# Reported conditions: individual peptides 10 μg/mL
# condition met = SFC/donor below 10 SFC/donor (exclusive); condition not met = SFC/donor at/above 10 SFC/donor

Reference set (3 entries):
77 (ANQPISSLKNRLHYR; Immunogenic fragment) [compound 77] | condition met
96 (LPDFIRNVLHKNGQK; Immunogenic fragment) [compound 96] | condition met
130 (SIIFDGKPYYQFIYT; Immunogenic fragment) [compound 130] | condition not met

Criterion: SFC/donor strictly below 10 SFC/donor. Is it met by 123 (YDDIDYVFVRGGSII; Immunogenic fragment) [compound 123] ?
condition not met

Criterion: SFC/donor strictly below 10 SFC/donor. Is it met by 127 (SQHLGYQTNQSIIIL; Immunogenic fragment) [compound 127] ?
condition met

Criterion: SFC/donor strictly below 10 SFC/donor. Is it met by 68 (DGHGIVIRGRHLLLL; Immunogenic fragment) [compound 68] ?
condition not met

====

# Test system: HDM-specific T cells expanded from PBMCs of HDM-allergic individuals
# Test details: T cell reactivity of peptides: IFN/IL-5 ELISPOT on in vitro expanded HDM-specific T cells
# Format: cell-based, human
# Reported conditions: individual peptides 10 μg/mL
// label = true if SFC/donor is not less than 10 SFC/donor, otherwise false

Reference set (4 entries):
87 (QSIFDINLAYMVYSD; Immunogenic fragment) [compound 87] | true
97 (NATEYWMDMFAEYHK; Immunogenic fragment) [compound 97] | true
79 (GNDLKNLSSKVLPNL; Immunogenic fragment) [compound 79] | false
86 (RLYSVELDGSHLIVR; Immunogenic fragment) [compound 86] | false

Next item in the queue.
// inclusive: SFC/donor at least 10 SFC/donor? input: 67 (LMVHRRLLHDDYFGV; Immunogenic fragment) [compound 67]
false

====

# System: HDM-specific T cells expanded from PBMCs of HDM-allergic individuals
# Test details: T cell reactivity of peptides: IFN/IL-5 ELISPOT on in vitro expanded HDM-specific T cells
# Format: cell-based, human
# Reported conditions: individual peptides 10 μg/mL
Recorded log10(SFC/donor), one value per entry.
Please be aware that the numbers have been log10-transformed from SFC/donor in SFC/donor.

Some solved entries appear below for comparison.
85 (DQVLRLKFIDANQKR; Immunogenic fragment) [compound 85] | 2.35
53 (FEAKGFKLVAMKFMM; Immunogenic fragment) [compound 53] | 0.85
99 (AEYHKTIAFDGAWLD; Immunogenic fragment) [compound 99] | 1.38
143 (FNTAVLFDRQGKLLG; Immunogenic fragment) [compound 143] | 1.04
LQHFNNAIKQLNTED (Immunogenic fragment) [Peptide 189, fragment of A0023 Der f] | 1.38
66 (IVQEVHQQFDSFVGQ; Immunogenic fragment) [compound 66] | 0.78
71 (LLRLEHFYQRFEDPS; Immunogenic fragment) [compound 71] | 0.90
106 (AALTKLNKRPFIISR; Immunogenic fragment) [compound 106] | 1.15
128 (YQTNQSIIILEILGI; Immunogenic fragment) [compound 128] | 1.00
69 (EPIISFTSIESNKQA; Immunogenic fragment) [compound 69] | 2.05

The value of log10(SFC/donor) measured for the substance 56 (LKKHYADLAARPFFP; Immunogenic fragment) [compound 56] turned out to be 0.90

The value of log10(SFC/donor) measured for the substance 58 (ITRLREAMGVMQHHD; Immunogenic fragment) [compound 58] turned out to be 0.90

The value of log10(SFC/donor) measured for the substance 111 (SSMRWTIPSILNFNM; Immunogenic fragment) [compound 111] turned out to be 1.28

====

# Tested on: HDM-specific T cells expanded from PBMCs of HDM-allergic individuals
# Test details: T cell reactivity of peptides: IFN/IL-5 ELISPOT on in vitro expanded HDM-specific T cells
# Type: cell-based, human
# Reported conditions: individual peptides 10 μg/mL
Value kind: log10 SFC/donor (log10 of the value in SFC/donor)
Please be aware that the numbers have been log10-transformed from SFC/donor in SFC/donor.

Some solved entries appear below for comparison.
124 (DINYVFFRSGSIIPI; Immunogenic fragment) [compound 124] | 1.30
129 (INILGVPKLPTSFKL; Immunogenic fragment) [compound 129] | 1.38
65 (LISIPEFVRKIPGRK; Immunogenic fragment) [compound 65] | 0.78
75 (SLRHLFKSFEIIAVE; Immunogenic fragment) [compound 75] | 0.78
55 (KFMMASEDLLKKHYA; Immunogenic fragment) [compound 55] | 0.70
48 (EQYISGVILFDETVY; Immunogenic fragment) [compound 48] | 2.51

The value of log10 SFC/donor measured for the substance 117 (IRAARSSLQYRYRFL; Immunogenic fragment) [compound 117] turned out to be 1.30

The value of log10 SFC/donor measured for the substance 150 (ELNSRFVYAKLRGAF; Immunogenic fragment) [compound 150] turned out to be 1.32
